Data provenance: patent US10947271B2

# System: Enterococcus faecium MDR Van A ATCC 51559
# Protocol summary: MIC assay, E. faecium MDR Van A ATCC 51559
# Type: cell-based
# Study conditions: 24 h incubation, visual reading
Result type: Minimum Inhibitory Concentration (MIC) E. faecium ATCC51559

Examples with answers:
Compound	Meas value
CCCCCCCCCCCCCC(=O)NCCCC[C@H](NC(=O)CCCCCCCCCCCCC)C(=O)N[C@@H](CCCCN)C(=O)N[C@@H](CCCCN)C(=O)N[C@@H](CCCCNC(=O)[C@H]1NC(=O)[C@H]2NC(=O)[C@H](NC(=O)[C@@H]3NC(=O)[C@H](CC(N)=O)NC(=O)[C@H](NC(=O)[C@@H](CC(C)C)NC)[C@H](O)c4ccc(c(Cl)c4)Oc4cc3cc(c4O[C@@H]3O[C@H](CO)[C@@H](O)[C@H](O)[C@H]3O[C@H]3C[C@](C)(N)[C@H](O)[C@H](C)O3)Oc3ccc(cc3Cl)[C@H]2O)c2ccc(O)c(c2)-c2c(O)cc(O)cc21)C(=O)NC	x (x = >4)
CCCCCCCCCCCC(=O)N[C@@H](CCCCN)C(=O)N[C@@H](CCCCNC(=O)[C@H]1NC(=O)[C@H]2NC(=O)[C@H](NC(=O)[C@@H]3NC(=O)[C@H](CC(N)=O)NC(=O)[C@H](NC(=O)[C@@H](CC(C)C)NC)[C@H](O)c4ccc(c(Cl)c4)Oc4cc3cc(c4O[C@@H]3O[C@H](CO)[C@@H](O)[C@H](O)[C@H]3O[C@H]3C[C@](C)(N)[C@H](O)[C@H](C)O3)Oc3ccc(cc3Cl)[C@H]2O)c2ccc(O)c(c2)-c2c(O)cc(O)cc21)C(N)=O	xx (xx = 1-4)
CCCCCCCC(=O)NCCCCC(NC(=O)CCCCCCC)C(=O)NC(CCCCN)C(=O)NC(CCCCNC(=O)C1NC(=O)C2NC(=O)C(NC(=O)C3NC(=O)C(CC(N)=O)NC(=O)C(NC(=O)C(CC(C)C)NC)C(O)c4ccc(c(Cl)c4)Oc4cc3cc(c4OC3OC(CO)C(O)C(O)C3OC3CC(C)(N)C(O)C(C)O3)Oc3ccc(cc3Cl)C2O)c2ccc(O)c(c2)-c2c(O)cc(O)cc21)C(=O)NC (centres unmarked)	x (x = >4)
CNC(CC(C)C)C(=O)NC1C(=O)NC(CC(N)=O)C(=O)NC2C(=O)NC3C(=O)NC(C(=O)NC(C(=O)NCCCNC(=O)C(CCCCN)NC(=O)c4ccc(C(F)(F)F)cc4)c4cc(O)cc(O)c4-c4cc3ccc4O)C(O)c3ccc(c(Cl)c3)Oc3cc2cc(c3OC2OC(CO)C(O)C(O)C2OC2CC(C)(N)C(O)C(C)O2)Oc2ccc(cc2Cl)C1O (centres unmarked)	x (x = >4)

Minimum Inhibitory Concentration (MIC) E. faecium ATCC51559 measured on CCCCCCCC(=O)NCCCC[C@H](NC(=O)CCCCCCC)C(=O)N[C@@H](CCCCN)C(=O)N[C@@H](CCCCN)C(=O)N[C@@H](CCCCNC(=O)[C@H]1NC(=O)[C@H]2NC(=O)[C@H](NC(=O)[C@@H]3NC(=O)[C@H](CC(N)=O)NC(=O)[C@H](NC(=O)[C@@H](CC(C)C)NC)[C@H](O)c4ccc(c(Cl)c4)Oc4cc3cc(c4O[C@@H]3O[C@H](CO)[C@@H](O)[C@H](O)[C@H]3O[C@H]3C[C@](C)(N)[C@H](O)[C@H](C)O3)Oc3ccc(cc3Cl)[C@H]2O)c2ccc(O)c(c2)-c2c(O)cc(O)cc21)C(=O)NC = xx (xx = 1-4)
